# assay.info: Metabolic stability in mouse liver microsomes
# Assay type: in vitro ADME, CD-1 mice
# condition.info: CD-1
# label = Y if half-life >= 1 h else N

Reference set (2 entries):
In [3]: df
Out[3]:
                                   compound  label_class
0  CCS(=O)(=O)c1ccc(C(COC)C(=O)Nc2cc(Cl)c(-c3ccc(S(C)(=O)=O)cc3)c(Cl)c2)cc1 (centres unmarked) [Example 15]            Y
1  CCS(=O)(=O)c1ccc(CC(=O)Nc2cc(Cl)c(-c3ccc(S(=O)(=O)C4CC4)cc3)c(Cl)c2)nc1 [Example 21]            Y

Could you tell me if the measured half-life of CS(=O)(=O)c1ccc(-c2c(Cl)cc(NC(=O)Cc3ccc(S(C)(=O)=O)cn3)cc2Cl)cc1 [Example 10] reaches 1 h or more?
Y

What do we get for CCS(=O)(=O)c1ccc(CC(=O)Nc2cc(Cl)c(-c3ccc(S(C)(=O)=O)cc3)c(Cl)c2)cc1 [Example 2] ?
Y

What do we get for CCS(=O)(=O)c1ccc(-c2c(Cl)cc(NC(=O)Cc3ccc(S(=O)(=O)CC)cn3)cc2Cl)cc1 [Example 5] ?
N

What do we get for CCS(=O)(=O)c1ccc(-c2c(Cl)cc(NC(=O)C(COC)c3ccc(S(=O)(=O)CC)cc3)cc2Cl)cc1 (centres unmarked) [Example 13] ?
N

What do we get for CCS(=O)(=O)c1ccc(C(COC)C(=O)Nc2cc(Cl)c(-c3ccc(S(=O)(=O)C4CC4)cc3)c(Cl)c2)cc1 (centres unmarked) [Example 16] ?
Y

What do we get for CS(=O)(=O)c1ccc(-c2c(Cl)cc(NC(=O)Cc3ccc(S(=O)(=O)CCO)cc3)cc2Cl)cc1 [Example 14] ?
Y

What do we get for CCS(=O)(=O)c1ccc(CC(=O)Nc2cc(Cl)c(-c3ccc(S(=O)(=O)C4CC4)cc3)c(Cl)c2)cc1 [Example 6] ?
Y

What do we get for COCC(C(=O)Nc1cc(Cl)c(-c2ccc(S(=O)(=O)C3CC3)cc2)c(Cl)c1)c1ccc(S(C)(=O)=O)cc1 (single isomer, unassigned) [Example 34] ?
Y

What do we get for CCS(=O)(=O)c1ccc(CC(=O)Nc2cc(Cl)c(-c3ccc(S(=O)(=O)CC)cc3)c(Cl)c2)cc1 [Example 1] ?
N

###

# assay.info: Pharmacokinetic (PK) assay in mice
# Format: in vivo
# condition.info: mouse, plasma; Po 5 mg/kg, CD-1 mice
measured.attribute: half-life (h)
State just the number; it will be interpreted in h.

Use the examples below as a reference point.
In [3]: df
Out[3]:
                                   molecule  quantitative_readout
0  CCS(=O)(=O)c1ccc(CC(=O)Nc2cc(Cl)c(-c3ccc(S(=O)(=O)C4CC4)cc3)c(Cl)c2)nc1 [Example 21]                  3.83
1  CCS(=O)(=O)c1ccc(-c2c(Cl)cc(NC(=O)C(COC)c3ccc(S(C)(=O)=O)cc3)cc2Cl)cc1 (stereo not drawn) [Example 19]                  1.51

I'd like to know its half-life. The molecule in question is CCS(=O)(=O)c1ccc(C(CO)C(=O)Nc2cc(Cl)c(-c3ccc(S(=O)(=O)C4CC4)cc3)c(Cl)c2)cc1 (single isomer, unassigned) [Example 39]
3

###

# assayed.system: RORγt (RORγ-LBD chimeric receptor) (Homo sapiens, UniProt P51449)
# Construct: host or cells: HEK293T
# Sequence (P51449 269-508 limits assumed, change not shown): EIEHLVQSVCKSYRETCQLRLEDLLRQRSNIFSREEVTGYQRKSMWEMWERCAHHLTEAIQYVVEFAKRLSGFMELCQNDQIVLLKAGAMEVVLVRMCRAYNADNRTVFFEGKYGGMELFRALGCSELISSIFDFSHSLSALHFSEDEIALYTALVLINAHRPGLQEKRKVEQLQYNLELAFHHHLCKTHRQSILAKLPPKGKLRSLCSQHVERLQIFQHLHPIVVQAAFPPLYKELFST
# assay.info: Luciferase reporter gene assay of RORγt agonistic activity in HEK293T cells
# Format: cell-based
# condition.info: HEK293T, GAL4 luciferase reporter; read-out: EC50
measured.attribute: pEC50
Answer as the number alone; pEC50 is minus log10 of concentration in mol/L.

>>> df
                                   molecule  quantitative_readout
0  CS(=O)(=O)c1ccc(CC(=O)Nc2cc(Cl)c(-c3ccc(S(C)(=O)=O)cc3)c(Cl)c2)cc1 [Example 7]                  7.39

Now consider the entry below.
I'd like to know its pEC50. The molecule in question is CCS(=O)(=O)c1ccc(C(COC)C(=O)Nc2cc(Cl)c(-c3ccc(S(=O)(=O)C4CC4)cc3)c(Cl)c2)cc1 (single isomer, unassigned) [Example 40]
7.03

###

# assay.info: Pharmacokinetic (PK) assay in mice
# Type: in vivo
# condition.info: IV 1 mg/kg, CD-1 mice; values marked **
measured.attribute: CL_obs

In [3]: df
Out[3]:
                                   molecule  measured_attribute            result
0  COCC(C(=O)Nc1ccc(-c2ccc(S(=O)(=O)C3CC3)cc2)c(C(F)(F)F)c1)c1ccc(S(C)(=O)=O)cc1 (single isomer, unassigned)              CL_obs  4.31** mL/min/kg

I'd like to know its CL_obs. The molecule in question is CCS(=O)(=O)c1ccc(C(CO)C(=O)Nc2cc(Cl)c(-c3ccc(S(=O)(=O)C4CC4)cc3)c(Cl)c2)cc1 (single isomer, unassigned)
8.22** mL/min/kg

What do we get for COCC(C(=O)Nc1cc(Cl)c(-c2ccc(S(=O)(=O)C3CC3)cc2)c(Cl)c1)c1ccc(S(C)(=O)=O)cc1 (stereo not drawn) ?
1.98** mL/min/kg

What do we get for CCS(=O)(=O)c1ccc(-c2c(Cl)cc(NC(=O)C(COC)c3ccc(S(C)(=O)=O)cc3)cc2Cl)cc1 (stereo not drawn) ?
26.0** mL/min/kg

What do we get for COC[C@H](C(=O)Nc1cc(Cl)c(-c2ccc(S(=O)(=O)C3CC3)cc2)c(Cl)c1)c1ccc(S(C)(=O)=O)cc1 (single isomer, unassigned) ?
2.40** mL/min/kg

What do we get for CCS(=O)(=O)c1ccc(C(COC)C(=O)Nc2cc(Cl)c(-c3ccc(S(=O)(=O)C4CC4)cc3)c(Cl)c2)cc1 (single isomer, unassigned) [Example 41] ?
15.4** mL/min/kg

What do we get for CCS(=O)(=O)c1ccc(CC(=O)Nc2cc(Cl)c(-c3ccc(S(=O)(=O)C4CC4)cc3)c(Cl)c2)nc1 ?
4.55** mL/min/kg

What do we get for CCS(=O)(=O)c1ccc(C(COC)C(=O)Nc2cc(Cl)c(-c3ccc(S(=O)(=O)C4CC4)cc3)c(Cl)c2)cc1 (stereo not drawn) [Example 16] ?
4.51** mL/min/kg

What do we get for CS(=O)(=O)c1ccc(C(CO)C(=O)Nc2cc(Cl)c(-c3ccc(S(=O)(=O)C4CC4)cc3)c(Cl)c2)cc1 (single isomer, unassigned) ?
7.21** mL/min/kg

###

# assay.info: Metabolic stability in mouse liver microsomes
# Format: in vitro ADME, CD-1 mice
# condition.info: 60 min
# label = condition met if % Remaining (T = 60 min) >= 80% else condition not met

In [3]: df
Out[3]:
                                   molecule        label_class
0  CCS(=O)(=O)c1ccc(C(CO)C(=O)Nc2cc(Cl)c(-c3ccc(S(=O)(=O)C4CC4)cc3)c(Cl)c2)cc1 (single isomer, unassigned)  condition not met
1  CS(=O)(=O)c1ccc(CC(=O)Nc2cc(Cl)c(-c3ccc(S(=O)(=O)C4CC4)cc3)c(Cl)c2)cc1      condition met
2  CCS(=O)(=O)c1ccc(C(COC)C(=O)Nc2cc(Cl)c(-c3ccc(S(=O)(=O)C4CC4)cc3)c(Cl)c2)cc1 (single isomer, unassigned) [Example 40]  condition not met
3  CCS(=O)(=O)c1ccc(C(COC)C(=O)Nc2cc(Cl)c(-c3ccc(S(C)(=O)=O)cc3)c(Cl)c2)cc1 (centres unmarked)      condition met
4  COCC(C(=O)Nc1cc(Cl)c(-c2ccc(S(=O)(=O)C3CC3)cc2)c(Cl)c1)c1ccc(S(C)(=O)=O)cc1 (centres unmarked) [Example 20]  condition not met
5  CCS(=O)(=O)c1ccc(-c2c(Cl)cc(NC(=O)C(COC)c3ccc(S(=O)(=O)CC)cc3)cc2Cl)cc1 (centres unmarked)  condition not met

Below: the item to evaluate.
Could you tell me if the measured % Remaining (T = 60 min) of COCC(C(=O)Nc1cc(Cl)c(-c2ccc(S(=O)(=O)C3CC3)cc2)c(Cl)c1)c1ccc(S(C)(=O)=O)cc1 (single isomer, unassigned) [Example 34] reaches 80% or more?
condition not met

###

# assayed.system: GST-RORγ LBD (263-509) (Homo sapiens)
# Construct: GST-RORγ LBD ((263-509) (produced at ChemPartner))
# Sequence (P51449 263-509): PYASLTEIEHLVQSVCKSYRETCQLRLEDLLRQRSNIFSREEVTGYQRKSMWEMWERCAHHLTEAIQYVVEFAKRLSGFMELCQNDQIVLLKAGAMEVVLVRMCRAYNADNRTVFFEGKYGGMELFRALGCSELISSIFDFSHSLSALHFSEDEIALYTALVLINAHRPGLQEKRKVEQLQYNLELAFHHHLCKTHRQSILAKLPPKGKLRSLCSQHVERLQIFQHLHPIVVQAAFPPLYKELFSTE
# assay.info: TR-FRET assay of agonistic activity on RORγ receptor
# Format: biochemical
# condition.info: maximum activation rate, TOP of fitted curve
measured.attribute: Emax % (%)
State just the number; it will be interpreted in %.

Use the examples below as a reference point.
>>> print(df.to_string())
                                   molecule                         assayed_system  measure_unit  quantitative_readout
0  CCS(=O)(=O)c1ccc(C(COC)C(=O)Nc2cc(Cl)c(-c3ccc(S(=O)(=O)C4CC4)cc3)c(Cl)c2)cc1 (single isomer, unassigned) [Example 41]  GST-RORγ LBD (263-509) (Homo sapiens)             %                 174.7
1  CCS(=O)(=O)c1ccc(C(CO)C(=O)Nc2cc(Cl)c(-c3ccc(S(=O)(=O)C4CC4)cc3)c(Cl)c2)cc1 (single isomer, unassigned)  GST-RORγ LBD (263-509) (Homo sapiens)             %                 181.3
2  CCS(=O)(=O)c1ccc(C(COC)C(=O)Nc2cc(Cl)c(-c3ccc(S(=O)(=O)C4CC4)cc3)c(Cl)c2)cc1 (single isomer, unassigned) [Example 40]  GST-RORγ LBD (263-509) (Homo sapiens)             %                 199.3

Now consider the entry below.
I'd like to know its Emax %. The molecule in question is CS(=O)(=O)c1ccc(C(CO)C(=O)Nc2cc(Cl)c(-c3ccc(S(=O)(=O)C4CC4)cc3)c(Cl)c2)cc1 (single isomer, unassigned)
197.0
